# System: BE3C: Bronchial epithelial cells (IL-1β, IFNγ, TNFα)
# method.description: BioMAP BE3C system
# Format: cell-based, human
# particulars: at the compound's active concentration
Could you please report measured MMP-1, log10 reduction vs nontreated controls for the items listed next?
Answers are plain numbers, in log10.

Previously resolved entries follow.
{"columns": ["molecule", "data.value"],
 "data": [
  ["C[C@H](CCC(=O)O)[C@H]1CC[C@H]2[C@@H]3[C@H](O)C[C@@H]4C[C@H](O)CC[C@]4(C)[C@H]3C[C@H](O)[C@]12C [cholate]", "−0.10"],
  ["O=C(O)CNC(=O)c1ccccc1 [hippurate]", "−0.14"],
  ["N[C@@H](CCC(=O)N[C@@H](Cc1c[nH]cn1)C(=O)O)C(=O)O", "−0.10"]
]}

Proceed to the following item.
Query block: Write down MMP-1, log10 reduction vs nontreated controls measured for item O[C@H]1[C@H](O)[C@@H](O)[C@H](O)[C@@H](O)[C@H]1O
Result block: −0.12

* * *

# Tested on: human primary cell-based systems
# method.description: BioMAP Diversity PLUS panel, phenotypic profiling
# particulars: tested at 6.7 and/or 20 μM; 24 to 72 hours
readout.label: Active concentrations (µM)
One number for each entry, in µM.

Field: Active concentrations. Fill in for each record below.
1. C[C@H](CCC(=O)O)[C@H]1CC[C@H]2[C@@H]3[C@H](O)C[C@@H]4C[C@H](O)CC[C@]4(C)[C@H]3C[C@H](O)[C@]12C [cholate]
2. Nc1ncnc2c1ncn2[C@@H]1O[C@H](CSCC[C@H](N)C(=O)O)[C@@H](O)[C@H]1O [S-adenosylhomocysteine (SAH), S-adenosylhomocysteine]
3. N[C@@H](CCC(=O)N[C@@H](Cc1c[nH]cn1)C(=O)O)C(=O)O
4. CC(=O)N[C@H](C(=O)O)[C@@H](C)O

Result block:
[20, 20, 20, 20]

Query block: Assign Active concentrations to the following record: O[C@H]1[C@H](O)[C@@H](O)[C@H](O)[C@@H](O)[C@H]1O
Result block: 6.7

* * *

Field: Active concentrations. Provide a value for each of the compounds that follow.
# Test system: human primary cell-based systems
# method.description: BioMAP Diversity PLUS panel, phenotypic profiling
# particulars: tested at 6.7 and/or 20 μM; 24 to 72 hours

Solved entries:
{"columns": ["compound", "tested.on", "Active concentrations"],
 "data": [
  ["O=c1[nH]c(=O)c2ncn([C@@H]3O[C@H](CO)[C@@H](O)[C@H]3O)c2[nH]1", "human primary cell-based systems", "6.7 to 20 µM"],
  ["O=C(O)CNC(=O)c1ccccc1 [hippurate]", "human primary cell-based systems", "6.7 to 20 µM"]
]}

Here is another compound to look at.
Query block: # return recorded Active concentrations for entry N=C(N)NCCCC(=O)O [4-guanidinobutanoate]
Result block: 6.7 to 20 µM
